Target: ADDL fibril preparation (Aβ1-42 fibrils made in 10 mM hydrochloric acid)
Assay: solution equilibrium titration; free IgG by ELISA; GraFit
outcome measure: pKd
Give bare numbers, as −log10 of the molar value.

binder | pKd
murine anti-ADDL monoclonal antibody 3B3 (antibody, mouse IgG1, V domains shown) VH: DVQLVESGGGLVQPGGSRKLSCAASGFTFSSFGMHWVRQAPEKGLEWVAYISRGSSTIYYADTVKGRFTISRDNPKNTLFLQMTSLRSEDTAMYYCARGITTALDYWGQGTSVTVSS VL: DVLMTQTPLSLPVSLGDQASISCRSSQSIVHSNGNTYLEWYLQKPGQSPKLLIYKASNRFSGVPDRFSGSGSGTDFTLKISRVEAEDLGVYYCFQGSHVPPTFGGGTKLEIK | 8.14
murine anti-ADDL monoclonal antibody 4C2 (antibody, mouse IgG1, V domains shown) VH: QVTLKESGPGILKPSQTLSLTCSFSGFSLSTSGMGVGWIRQPSGKGLEWLAHIWWDDDKYYNPSLKSQLTISKDTSRNQVFLKITSVDTADTATYYCARRSITTVVPEDYFAYWGQGTTLTVSS VL: DVLMTQSPLSLPVSLGDQASISCRSSQSIVHSNGNTYLEWYLQKPGQSPKLLIYKVSNRFSGVPDRFSGSGSGTDFTLKISRVEAEDLGVYYCFQGSHVPLTFGAGTKLELK | 7.72
murine anti-ADDL monoclonal antibody 2D6 (antibody, mouse IgG1, V domains shown) VH: QVTLKESGPGILKPSQTLSLTCSFSGFSLSTSGMGVGWIRQPSGKGLEWLAHIWWDDDKYYNPSLKSQLTISKDTSRNQVFLKITSVDTADTATYYCARRSISTVIPEDYFDYWGQGTILTVSS VL: DVLMTQTPLSLTVSLGDQASISCRSSQSIVHSNGNTYLEWYLQKPGQSPKLLIYKVSNRFSGVPDRFSGSGSGTDFTLKISRVEAEDLGVYYCFQGSHVPLTFGAGTKLELK | 7.84

Proceeding to the next binder to report its pKd.
Just so you know, measured pKd for murine anti-ADDL monoclonal antibody 2A10 (antibody, mouse IgG1, V domains shown) VH: QVTLKESGPGILKPSQTLSLTCSFSGFSLSTSGMGVGWIRQPSGKGLEWLAHIWWDDDKYYNPSLKSQLTISKDTSRNQVFLKITSVDTADTATYYCARRSISTLVPEDYFDYWGQGTTLTVSS VL: DVLMTQTPLSLPVSLGDQASISCRSSQSIVHSNGNTYLEWYLQKPGQSPKLLIYKVSNRFSGVPDRFSGSGSGTDFTLKISRVEAEDLGVYYCFQGSHVPLTFGAGTKLELK came out at 8.17
